Provenance of the data: ChEMBL document CHEMBL1201862

Each entry below carries its recorded EC50.
TEST_SYSTEM: Endoribonuclease toxin MazF (Escherichia coli K-12, UniProt P0AE70)
Sequence (P0AE70 whole entry): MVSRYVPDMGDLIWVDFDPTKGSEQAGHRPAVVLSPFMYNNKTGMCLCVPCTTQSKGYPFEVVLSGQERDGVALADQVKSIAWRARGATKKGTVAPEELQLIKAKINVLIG
METHOD_SUMMARY: fluorescent RNA oligo signal without MazF, dose response, counter-screen for MazEF activator project, biochemical, fluorescence, single-stranded RNase substrate (AID 588502)
Format: functional
Active and inactive are the calls of the source.

Sample records with EC50:
CHEMICAL_SMILES	OBSERVED_PROPERTY	MEASURED_VALUE
CN(C)/C=c1\sc2c(C#N)cc(C(=O)c3ccc(Br)cc3)n2c1=O	EC50	22.3 µM (inactive)
Cc1ccc(N/C=C2/C(=O)N(c3nccs3)C(=O)c3ccccc32)c(C)c1	EC50	> 99 µM (inactive)

For COc1ccccc1Nc1nc2ccc(C)cc2cc1C#N , what is its reported EC50?
58.3 µM (inactive)

Please give the measured EC50 for this molecule: Cn1c(/C=C/c2ccccc2[N+](=O)[O-])nc2ccccc2c1=O
> 99 µM (inactive)

Quick one: EC50 of CC(=O)Nc1cc(Cl)c(/N=C/c2ccc(O)cc2O)cc1Cl ?
> 99 µM (inactive)

For the molecule COc1cc2c(cc1OC)C(/C=C(\O)c1ccc([N+](=O)[O-])c(C)c1)=NCC2 , what EC50 is on record?
43.8 µM (inactive)

====

In this section we review reported IC50 values for a set of compounds.
TEST_SYSTEM: Coagulation factor XII (Homo sapiens, UniProt P00748);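 note: activated factor XIIa alpha cleaving a fluorogenic AMC peptide substrate; inhibitor potency from loss of enzyme activity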
Sequence (P00748 whole entry): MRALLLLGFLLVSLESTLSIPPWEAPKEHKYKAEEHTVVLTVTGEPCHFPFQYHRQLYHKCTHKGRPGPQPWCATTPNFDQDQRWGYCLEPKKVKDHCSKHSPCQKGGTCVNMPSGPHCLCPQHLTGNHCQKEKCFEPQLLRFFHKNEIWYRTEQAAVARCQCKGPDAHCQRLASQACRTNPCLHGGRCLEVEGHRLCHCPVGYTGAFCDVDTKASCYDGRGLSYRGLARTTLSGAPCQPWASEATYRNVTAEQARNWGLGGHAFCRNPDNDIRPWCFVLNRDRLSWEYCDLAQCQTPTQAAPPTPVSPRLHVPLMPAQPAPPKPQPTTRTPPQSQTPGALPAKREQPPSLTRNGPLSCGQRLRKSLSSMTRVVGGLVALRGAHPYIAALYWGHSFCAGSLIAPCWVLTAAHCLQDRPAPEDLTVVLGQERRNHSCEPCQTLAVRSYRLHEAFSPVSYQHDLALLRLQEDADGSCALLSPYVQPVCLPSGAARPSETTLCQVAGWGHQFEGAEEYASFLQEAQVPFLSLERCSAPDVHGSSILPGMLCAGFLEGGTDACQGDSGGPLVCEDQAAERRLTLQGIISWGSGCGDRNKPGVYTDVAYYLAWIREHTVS
Type: functional
Activity calls are given as the source filed them.

CHEMICAL_SMILES	IC50
Cc1cc(C(=O)Nc2nc(C)c(C(=O)N(C)C)s2)ccc1[N+](=O)[O-]	> 50 µM (inactive)
Cc1nn(CCc2nnn[nH]2)c2nc(-c3ccc(Br)cc3)cc(C(F)(F)F)c12	> 50 µM (inactive)
CN(C)/C=C/c1c(C#N)c(=O)ncn1Cc1ccccc1	> 50 µM (inactive)
O=C(O)c1ccc(/C=C2\SC(=S)N(Nc3ccccc3)C2=O)cc1	> 50 µM (inactive)

// switching to the query compound
# get_value(readout= IC50, system= Coagulation factor XII (Homo sapiens, UniProt P00748)) for O=C(CNCc1ccccn1)Nc1cc(C(F)(F)F)ccc1N1CCOCC1;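 note: activated factor XIIa alpha cleaving a fluorogenic AMC peptide substrate; inhibitor potency from loss of enzyme activity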
> 50 µM (inactive)
